# ASSAYED TARGET: K. pneumoniae AcrB (Klebsiella pneumoniae, UniProt A0A332Z023)
# ASSAY PROTOCOL: Berberine accumulation assay, K. pneumoniae WT
# TEST CONDITIONS: read-out: apparent Ki, concentration-dependent stimulation of berberine uptake, 200 µM berberine
OBSERVABLE: Ki

Exercise: Fill blank: measured Ki of the compound Clc1cc2cc(N3CCNCC3)ccc2nc1N1CCNCC1 [compound 5] is ____.
Key: ~20 µM

###

I'd be grateful if you could share measured half-life at 1 μM for these entries.
# ASSAY PROTOCOL: Microsomal stability in mouse liver microsomes
# Assay type: in vitro ADME
# TEST CONDITIONS: female, CD-1, pH 7.4, read-out: Microsomal stability t1/2

Exercise: Fill blank: measured half-life at 1 μM of the compound `Clc1cc2cc(N3CCNCC3)ccc2nc1N1CCNCC1` is ____.
Key: > 40 min

Exercise: Fill blank: measured half-life at 1 μM of the compound `N[C@@H]1CCN(c2ccc3nc(N4CCNCC4)c(Cl)cc3c2)C1` is ____.
Key: 2.6 min

Exercise: Fill blank: measured half-life at 1 μM of the compound `NCCNc1ccc2nc(N3CCNCC3)c(Cl)cc2c1` is ____.
Key: 40 min

Exercise: Fill blank: measured half-life at 1 μM of the compound `Clc1cc2cc(N3CCOCC3)ccc2nc1N1CCNCC1` is ____.
Key: 11 min

Exercise: Fill blank: measured half-life at 1 μM of the compound `Clc1nc2ccccc2nc1N1CCNCC1` is ____.
Key: 15 min

Exercise: Fill blank: measured half-life at 1 μM of the compound `Clc1cc2cc(N3CCCCC3)ccc2nc1N1CCNCC1` is ____.
Key: 6 min

Exercise: Fill blank: measured half-life at 1 μM of the compound `NCC(=O)Nc1ccc2nc(N3CCNCC3)c(Cl)cc2c1` is ____.
Key: > 40 min

###

# Test system: K. pneumoniae AcrB^V448E RamR^mut
# ASSAY PROTOCOL: MIC of antibiotics with and without EPI (REMA), double mutant
# Format: cell-based, Klebsiella pneumoniae
# TEST CONDITIONS: K. pneumoniae AcrB^V448E RamR^mut; + 100 µM 1'
I'd be grateful if you could share measured Minimum Inhibitory Concentration for these entries.
# answer = value followed by unit

Exercise: Fill blank: measured Minimum Inhibitory Concentration of the compound O=C(N[C@H](CO)[C@H](O)c1ccc([N+](=O)[O-])cc1)C(Cl)Cl [Chloramphenicol] is ____.
Key: 128 mg/L

Exercise: Fill blank: measured Minimum Inhibitory Concentration of the compound CCN1CCN(C(=O)N[C@@H](C(=O)N[C@@H]2C(=O)N3[C@@H]2SC(C)(C)[C@@H]3C(=O)O)c2ccccc2)C(=O)C1=O [Piperacillin] is ____.
Key: 37 mg/L

Exercise: Fill blank: measured Minimum Inhibitory Concentration of the compound C[C@H]1[C@H](NC(=O)/C(=N\OC(C)(C)C(=O)O)c2csc(N)n2)C(=O)N1S(=O)(=O)O [Aztreonam] is ____.
Key: 0.53 mg/L

Exercise: Fill blank: measured Minimum Inhibitory Concentration of the compound CC[C@H]1OC(=O)[C@H](C)[C@@H](O[C@H]2C[C@@](C)(OC)[C@@H](O)[C@H](C)O2)[C@H](C)[C@@H](O[C@@H]2O[C@H](C)C[C@H](N(C)C)[C@H]2O)[C@](C)(O)C[C@@H](C)CN(C)[C@H](C)[C@@H](O)[C@]1(C)O [Azithromycin] is ____.
Key: 37 mg/L

Data credit: paper PMC10897476
